Test system: OVCAR3 cells
Assay: MTT proliferation assay, OVCAR3;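 further: compound given as an 8- or 10-point series, one day after plating, with exposure covering roughly 3-4 cell doublings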
Type: cell-based
Settings: 5 days compound exposure, 1:3 serial dilution starting at 10 μM
*1 amine or outer side, *2 acyl side, *3 side chain or, on linkers, in order; H or OH if unused. Where a SMILES comes first, the peptide text is derived from it. Bridges are numbered along the chain shown (N, C = ends). [ ]: non-standard residue; d: D form. The star is where a group is joined. X21 = CN([C@@H](Cc1cc(Cl)ccc1-c1ccc(N2CCN3CCOC[C@H]3C2)cc1)C(=O)[*:2])[*:1]; NMehhhLys(Me) = CN([C@@H](CCCCCCCN(C)[*:3])C(=O)[*:2])[*:1]; X174 = CN([C@@H](Cc1cc(Cl)cnc1-c1cnn(C)c1)C(=O)[*:2])[*:1]; Cyclobutanecarbonyl(1-CF3) = O=C(C1(C(F)(F)F)CCC1)*; cBuCO(3,3-F2-1-CF3) = O=C(C1(C(F)(F)F)CC(F)(F)C1)*; Pro(trans-4-F) = O=C(O)[C@@H]1C[C@@H](F)CN1; Gly(cPr) = N[C@H](C(=O)O)C1CC1
Observed property: GI50 (nM)
Give the value, in units of nM, as a plain number.

CC(C)C[C@@H]1NC(=O)[C@@H](N(C)C(=O)[C@@H](NC(=O)[C@@H]2C[C@@H](F)CN2C(=O)C2(C(F)(F)F)CCC2)C2CC2)CCCCCCCN(C)C(=O)[C@H](Cc2cc(Cl)cnc2-c2cnn(C)c2)N(C)C1=O [Example 247] ({Cyclobutanecarbonyl(1-CF3)}-[Pro(trans-4-F)][Gly(cPr)][NMehhhLys(Me)]L[X174]; lactam 3-C)
40
CC(C)C[C@@H]1NC(=O)[C@@H](N(C)C(=O)[C@@H](NC(=O)[C@@H]2C[C@@H](F)CN2C(=O)C2(C(F)(F)F)CC(F)(F)C2)C2CC2)CCCCCCCN(C)C(=O)[C@H](Cc2cc(Cl)ccc2-c2ccc(N3CCN4CCOC[C@H]4C3)cc2)N(C)C1=O [Example 364] ({cBuCO(3,3-F2-1-CF3)}-[Pro(trans-4-F)][Gly(cPr)][NMehhhLys(Me)]L[X21]; lactam 3-C)
10

Next compound, GI50 to be filled in.
[in] Item CC(C)C[C@@H]1NC(=O)[C@@H](N(C)C(=O)[C@@H](NC(=O)[C@@H]2C[C@@H](F)CN2C(=O)C2(C(F)(F)F)CC(F)(F)C2)C2CC2)CC=CCCCCNC(=O)[C@H](Cc2cc(Cl)ccc2-c2cnn(C3COC3)c2)N(C)C1=O has what recorded GI50?
[out] 370

Attribution: patent US20240408169A1
